Would you mind telling me the reported IC50 of each entry?
# System: HeLa
# experiment-notes: Compound was evaluated for toxicity against HeLa S3 cells
# Assay type: functional, cell-based
# cond: Homo sapiens
Numbers only, in µM.

{"compound": "C=C[C@@]12COC(=O)C(=C)[C@@H]1[C@H]1OC(=O)C(=C)[C@@H]1[C@@H](O)C2 [VERNOLEPIN]", "recorded-measurement": 3.5}
{"compound": "C[C@]12CC[C@@H]3c4ccc(O)cc4CC[C@H]3[C@@H]1CC[C@@]2(O)[C@@H]1CO1", "recorded-measurement": 18.6}
{"compound": "C[C@]12CC[C@@H]3c4ccc(O)cc4CC[C@H]3[C@@H]1CC[C@@]2(O)[C@H]1CO1", "recorded-measurement": 6.5}

Input C[C@]12CC[C@@H]3c4ccc(OC(=O)N(CCCl)CCCl)cc4CC[C@H]3[C@@H]1CC[C@@H]2O . Output IC50: 3.4
